biological target: RIP1 (Homo sapiens); assay: Cellular RIP1 inhibitory activity: HT-29 necroptosis (TNFα/SMAC mimetic/zVAD-FMK) CellTiter-Glo viability assay; settings: HT-29 cells, TNF-α 10 ng/ml + SMAC mimetic 6 μM + zVAD-FMK 10 μM, 20 hours, geometric mean, read-out: EC50 Values of in vitro Cellular RIP1 Inhibitory Activity
pEC50: −log10 of the molar value.
property_label: pEC50

[[record]]
line_notation = "Cc1cnn(C)c1-c1cc(N2CCC(C(=O)N(C)Cc3nccs3)CC2)c(F)cn1"
tgt = "RIP1 (Homo sapiens)"
property_label = "pEC50"
observed_result = "7.00 to 10.00"

[[record]]
line_notation = "Cc1cnn(C)c1-c1nc(N2CCC(C(=O)N(C)Cc3cscn3)CC2)ncc1F"
tgt = "RIP1 (Homo sapiens)"
property_label = "pEC50"
observed_result = "7.00 to 10.00"

[[record]]
line_notation = "Cc1cnn(C)c1-c1nc(N2CCC(C(=O)NCc3nc(C)c(C)s3)CC2)ncc1F"
tgt = "RIP1 (Homo sapiens)"
property_label = "pEC50"
observed_result = "6.00 to 7.00"

[[record]]
line_notation = "CCN(Cc1nccs1)C(=O)C1CCN(c2ncc(F)c(-c3c(C)cnn3C)n2)CC1"
tgt = "RIP1 (Homo sapiens)"
property_label = "pEC50"
observed_result = "7.00 to 10.00"


---

molecular target: RIP1 (Homo sapiens); assay: Cellular RIP1 inhibitory activity: HT-29 necroptosis (TNFα/SMAC mimetic/zVAD-FMK) CellTiter-Glo viability assay; conditions: HT-29 cells, TNF-α 10 ng/ml + SMAC mimetic 6 μM + zVAD-FMK 10 μM, 20 hours, geometric mean, read-out: EC50 Values of in vitro Cellular RIP1 Inhibitory Activity
pEC50: −log10 of the molar value.
property_label: pEC50

[[record]]
line_notation = "[2H]C([2H])([2H])N(C(=O)C1CCN(c2ncc(F)c(-c3ncnn3C)n2)CC1)C([2H])([2H])c1cc(F)cc(F)c1F"
property_label = "pEC50"
observed_result = "7.00 to 10.00"

[[record]]
line_notation = "CCN(Cc1cc(F)cc(F)c1F)C(=O)C1CCN(c2ncc(F)c(-c3c(C)cnn3C)n2)CC1"
property_label = "pEC50"
observed_result = "7.00 to 10.00"

[[record]]
line_notation = "[2H]C([2H])([2H])N(Cc1nc(C)cs1)C(=O)C1CCN(c2ncc(F)c(-c3c(C)cnn3C)n2)CC1"
property_label = "pEC50"
observed_result = "7.00 to 10.00"

[[record]]
line_notation = "Cc1cnn(C)c1-c1nc(N2CCC(C(=O)N[C@@H](CO)c3ccccc3)CC2)ncc1F"
property_label = "pEC50"
observed_result = "7.00 to 10.00"

[[record]]
line_notation = "Cc1cnn(C)c1-c1nc(N2CCC(C(=O)N(O)Cc3ccccc3)CC2)ncc1F"
property_label = "pEC50"
observed_result = "7.00 to 10.00"

[[record]]
line_notation = "Cc1cnn(C)c1-c1nc(N2CCC(C(=O)N(O)Cc3nccs3)CC2)ncc1F"
property_label = "pEC50"
observed_result = "7.00 to 10.00"

[[record]]
line_notation = "[2H]C([2H])([2H])N(C(=O)C1CCN(c2ncc(F)c(-c3c(C)cnn3C)n2)CC1)C([2H])([2H])c1cc(F)cc(F)c1F"
property_label = "pEC50"
observed_result = "7.00 to 10.00"

[[record]]
line_notation = "Cc1csc(CNC(=O)C2CCN(c3ncc(F)c(-c4c(C)cnn4C)n3)CC2)n1"
property_label = "pEC50"
observed_result = "6.00 to 7.00"

[[record]]
line_notation = "Cc1cnn(C)c1-c1nc(N2CCC(C(=O)N(C)Cc3ccn(C)n3)CC2)ncc1F"
property_label = "pEC50"
observed_result = "7.00 to 10.00"

[[record]]
line_notation = "Cc1cnn(C)c1-c1cc(N2CCC(C(=O)NCc3nccs3)CC2)c(F)cn1"
property_label = "pEC50"
observed_result = "6.00 to 7.00"

[[record]]
line_notation = "Cc1cnn(C)c1-c1nc(N2CCC(C(=O)N(O)Cc3ncccc3Cl)CC2)ncc1F"
property_label = "pEC50"
observed_result = "7.00 to 10.00"

[[record]]
line_notation = "O=C(C1CCN(c2ncc(F)cn2)CC1)N(O)Cc1cc(F)cc(F)c1"
property_label = "pEC50"
observed_result = "6.00 to 7.00"

[[record]]
line_notation = "Cc1cnn(C)c1-c1nc(N2CCC(C(=O)N(O)Cc3cncs3)CC2)ncc1F"
property_label = "pEC50"
observed_result = "7.00 to 10.00"

[[record]]
line_notation = "Cc1cnn(C)c1-c1nc(N2CCC(C(=O)NCc3cscn3)CC2)ncc1F"
property_label = "pEC50"
observed_result = "6.00 to 7.00"

[[record]]
line_notation = "Cc1ncc(CN(O)C(=O)C2CCN(c3ncc(F)c(-c4c(C)cnn4C)n3)CC2)s1"
property_label = "pEC50"
observed_result = "7.00 to 10.00"

[[record]]
line_notation = "Cc1cnn(C)c1-c1nc(N2CCC(C(=O)N(O)Cc3ccc(F)nc3)CC2)ncc1F"
property_label = "pEC50"
observed_result = "7.00 to 10.00"

[[record]]
line_notation = "CCN(Cc1cc(C)n(C)n1)C(=O)C1CCN(c2ncc(F)c(-c3c(C)cnn3C)n2)CC1"
property_label = "pEC50"
observed_result = "6.00 to 7.00"

[[record]]
line_notation = "Cc1nc(CNC(=O)C2CCN(c3ncc(F)c(-c4c(C)cnn4C)n3)CC2)c(C)s1"
property_label = "pEC50"
observed_result = "7.00 to 10.00"

[[record]]
line_notation = "CCN(Cc1nc(C)cs1)C(=O)C1CCN(c2ncc(F)c(-c3c(C)cnn3C)n2)CC1"
property_label = "pEC50"
observed_result = "7.00 to 10.00"

[[record]]
line_notation = "Cc1nc(C)n(-c2nc(N3CCC(C(=O)NCc4cc(F)cc(F)c4)CC3)ncc2F)n1"
property_label = "pEC50"
observed_result = "7.00 to 10.00"

[[record]]
line_notation = "Cc1cnn(C)c1-c1nc(N2CCC(C(=O)NCc3nccs3)CC2)ncc1F"
property_label = "pEC50"
observed_result = "6.00 to 7.00"

[[record]]
line_notation = "Cc1csc(CN(C)C(=O)C2CCN(c3ncc(F)c(-c4c(C)cnn4C)n3)CC2)n1"
property_label = "pEC50"
observed_result = "7.00 to 10.00"

[[record]]
line_notation = "Cc1nc(C)n(-c2nc(N3CCC(C(=O)NCc4cc(F)cc(F)c4F)CC3)ncc2F)n1"
property_label = "pEC50"
observed_result = "7.00 to 10.00"

[[record]]
line_notation = "Cc1cnn(C)c1-c1nc(N2CCC(C(=O)NCC3CCCCC3)CC2)ncc1F"
property_label = "pEC50"
observed_result = "7.00 to 10.00"

[[record]]
line_notation = "Cc1cnn(C)c1-c1nc(N2CCC(C(=O)N(C)Cc3cc(C)n(C)n3)CC2)ncc1F"
property_label = "pEC50"
observed_result = "6.00 to 7.00"

[[record]]
line_notation = "Cc1nc(C)n(-c2nc(N3CCC(C(=O)N(O)Cc4cc(F)cc(F)c4)CC3)ncc2F)n1"
property_label = "pEC50"
observed_result = "7.00 to 10.00"

[[record]]
line_notation = "Cc1cnn(C)c1-c1nc(N2CCC(C(=O)N(C)Cc3cnn(C)c3)CC2)ncc1F"
property_label = "pEC50"
observed_result = "6.00 to 7.00"

[[record]]
line_notation = "Cc1nc(C)n(-c2nc(N3CCC(C(=O)N(O)Cc4ccccn4)CC3)ncc2F)n1"
property_label = "pEC50"
observed_result = "6.00 to 7.00"

[[record]]
line_notation = "[2H]C([2H])([2H])N(Cc1nccs1)C(=O)C1CCN(c2ncc(F)c(-c3c(C)cnn3C)n2)CC1"
property_label = "pEC50"
observed_result = "7.00 to 10.00"

[[record]]
line_notation = "Cc1cnn(C)c1-c1cc(N2CCC(C(=O)N(C)Cc3cc(F)cc(F)c3)CC2)ncn1"
property_label = "pEC50"
observed_result = "7.00 to 10.00"

[[record]]
line_notation = "Cc1cnn(C)c1-c1cc(N2CCC(C(=O)N(O)Cc3cc(F)cc(F)c3)CC2)ncn1"
property_label = "pEC50"
observed_result = "7.00 to 10.00"

[[record]]
line_notation = "CCN(Cc1ccn(C)n1)C(=O)C1CCN(c2ncc(F)c(-c3c(C)cnn3C)n2)CC1"
property_label = "pEC50"
observed_result = "7.00 to 10.00"


---

Target: RIP1 (Homo sapiens)
Sequence (Q13546 1-671): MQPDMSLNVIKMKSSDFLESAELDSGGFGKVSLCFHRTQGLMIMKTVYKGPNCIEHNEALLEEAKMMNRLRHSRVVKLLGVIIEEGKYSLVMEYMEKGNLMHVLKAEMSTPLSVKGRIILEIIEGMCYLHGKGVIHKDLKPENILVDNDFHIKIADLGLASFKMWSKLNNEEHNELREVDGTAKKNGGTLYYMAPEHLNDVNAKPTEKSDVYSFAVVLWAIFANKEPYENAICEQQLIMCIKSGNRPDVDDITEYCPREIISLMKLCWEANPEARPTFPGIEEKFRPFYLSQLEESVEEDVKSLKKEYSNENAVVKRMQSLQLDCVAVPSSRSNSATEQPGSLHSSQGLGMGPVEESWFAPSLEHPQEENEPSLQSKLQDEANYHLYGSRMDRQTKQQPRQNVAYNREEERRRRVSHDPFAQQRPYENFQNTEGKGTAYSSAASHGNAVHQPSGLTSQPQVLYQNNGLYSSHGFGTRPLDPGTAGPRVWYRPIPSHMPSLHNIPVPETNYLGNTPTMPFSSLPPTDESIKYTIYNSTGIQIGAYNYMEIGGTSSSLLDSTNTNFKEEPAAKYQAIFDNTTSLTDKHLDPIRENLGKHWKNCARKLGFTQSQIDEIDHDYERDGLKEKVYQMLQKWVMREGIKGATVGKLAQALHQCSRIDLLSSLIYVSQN
Experiment: Cellular RIP1 inhibitory activity: HT-29 necroptosis (TNFα/SMAC mimetic/zVAD-FMK) CellTiter-Glo viability assay
Conditions: HT-29 cells, TNF-α 10 ng/ml + SMAC mimetic 6 μM + zVAD-FMK 10 μM, 20 hours, geometric mean, read-out: EC50 Values of in vitro Cellular RIP1 Inhibitory Activity
pEC50: −log10 of the molar value.
A collection of compounds and their measured pEC50
property_label: pEC50

[[record]]
compound = "Cc1cnn(C)c1-c1nc(N2CCC(C(=O)NCc3cnn(C)c3)CC2)ncc1F [Compound 45]"
property_label = "pEC50"
observed_result = "5.00 to 6.00"

[[record]]
compound = "Cc1cnn(C)c1-c1nc(N2CCC(C(=O)N(O)Cc3cnn(C)c3)CC2)ncc1F [Compound 3]"
property_label = "pEC50"
observed_result = "7.00 to 10.00"

[[record]]
compound = "Cc1cnn(C)c1-c1ccc(OC2CC(C(=O)N(O)Cc3cc(F)cc(F)c3)C2)c(F)n1 (centres unmarked) [Compound 54]"
property_label = "pEC50"
observed_result = "6.00 to 7.00"

[[record]]
compound = "Cc1cnn(C)c1-c1nc(N2CCC(C(=O)N(C)Cc3nccs3)CC2)ncc1F [Compound 95]"
property_label = "pEC50"
observed_result = "7.00 to 10.00"

[[record]]
compound = "Cc1cnn(C)c1-c1nc(N2CCC(C(=O)N(O)Cc3cncc(C#N)c3)CC2)ncc1F [Compound 52]"
property_label = "pEC50"
observed_result = "7.00 to 10.00"

[[record]]
compound = "Cc1cnn(C)c1-c1nc(N2CCC(C(=O)NCc3cc(F)cc(F)c3)CC2)ncc1F [Compound 62]"
property_label = "pEC50"
observed_result = "7.00 to 10.00"

[[record]]
compound = "Cc1cnn(C)c1-c1nc(N2CCC(C(=O)N(O)Cc3cncc(F)c3)CC2)ncc1F [Compound 37]"
property_label = "pEC50"
observed_result = "7.00 to 10.00"

[[record]]
compound = "Cc1nc(C)n(-c2nc(N3CCC(C(=O)N(C)Cc4cc(F)cc(F)c4)CC3)ncc2F)n1 [Compound 64]"
property_label = "pEC50"
observed_result = "7.00 to 10.00"

